# PROTOCOL DETAILS: in vitro
# EXPERIMENTAL CONTEXT: human, t24 carcinoma cells
PROPERTY NAME: half-life

For O=C1OC2(c3ccc(O)cc3Oc3cc(O)ccc32)c2ccccc21 , what is its reported half-life?
10 to 25 min

====

# PROTOCOL DETAILS: uptake by living cells
# Format: cell-based
# EXPERIMENTAL CONTEXT: living cells; intracellular; read-out: half-life of fluorescein within a cell
PROPERTY NAME: half-life

For O=C1OC2(c3ccc(O)cc3Oc3cc(O)ccc32)c2ccccc21 [fluorescein] , what is its reported half-life?
~15 min
